Entry source: patent US20240270857A1

Reported IC50 (M); hIL36α; IL-8 production values for the following binders.
- study.target: T1, IL-36R naturally expressed on OVCAR8 cells and on normal human epidermal keratinocytes (NHK cells) (human, UniProt Q9HB29 20-575)
- T1 sequence (looked up): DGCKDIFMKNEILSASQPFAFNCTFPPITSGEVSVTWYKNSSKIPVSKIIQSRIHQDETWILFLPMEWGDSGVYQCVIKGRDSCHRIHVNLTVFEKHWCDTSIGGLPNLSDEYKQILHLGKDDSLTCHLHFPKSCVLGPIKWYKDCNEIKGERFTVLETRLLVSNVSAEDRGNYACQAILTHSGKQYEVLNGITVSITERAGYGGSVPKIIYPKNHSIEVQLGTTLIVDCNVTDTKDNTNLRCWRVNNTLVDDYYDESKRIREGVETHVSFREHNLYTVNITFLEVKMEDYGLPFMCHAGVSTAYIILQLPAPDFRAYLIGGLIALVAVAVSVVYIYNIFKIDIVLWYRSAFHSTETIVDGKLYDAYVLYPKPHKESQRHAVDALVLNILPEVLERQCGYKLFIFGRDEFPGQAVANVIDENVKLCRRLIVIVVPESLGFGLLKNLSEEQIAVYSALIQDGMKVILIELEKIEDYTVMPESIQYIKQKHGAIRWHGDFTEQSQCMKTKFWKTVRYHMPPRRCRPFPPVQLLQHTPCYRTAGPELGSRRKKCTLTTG
- method.notes: cell-based or functional assay
Write down the numeric answer in M and omit the unit.

Record excerpt, results attached:
binder="hz84C4-2.2 (antibody, human IgG4 S228P, kappa, V domains shown, Humanized, human IgG4 / kappa) VH: QVQLVQSGAEVKKPGASVKVSCKASGYFFTSYWMNWVRQAPGQGLEWMGYIHPYDSETRYAQKFQGRVTMTVDKSTSTVYMELSSLRSEDTAVYYCASSTTAFAYWGQGTLVTVSS VL: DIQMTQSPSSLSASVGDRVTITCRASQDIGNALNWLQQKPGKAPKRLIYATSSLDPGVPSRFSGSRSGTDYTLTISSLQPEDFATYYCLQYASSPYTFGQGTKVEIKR" endpoint_result=1.19e-11
binder="hz84C4-1.4 (antibody, human IgG4 S228P, kappa, V domains shown, Humanized, human IgG4 / kappa) VH: QVQLVQSGAEVKKPGASVKVSCKASGYYFTSYWMNWVRQAPGQGLEWMGMIHPYDSETRLAQKFKGRVTMTVDKSTSTVYMELSSLRSEDTAVYYCASSTTAFAYWGQGTLVTVSS VL: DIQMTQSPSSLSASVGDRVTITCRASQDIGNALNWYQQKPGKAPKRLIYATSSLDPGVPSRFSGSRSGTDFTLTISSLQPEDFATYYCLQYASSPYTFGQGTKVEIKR" endpoint_result=1.42e-11
binder="hz84C4-2.5 (antibody, human IgG4 S228P, kappa, V domains shown, Humanized, human IgG4 / kappa) VH: QVQLVQSGAEVKKPGASVKVSCKVSGYFFTSYWMNWVNQAPGQGLEWMGMIHPYDSETRLAQKFKGRVTMTVDKSTSTVYMELSSLRSEDTAVYYCASSTTAFAYWGQGTLVTVSS VL: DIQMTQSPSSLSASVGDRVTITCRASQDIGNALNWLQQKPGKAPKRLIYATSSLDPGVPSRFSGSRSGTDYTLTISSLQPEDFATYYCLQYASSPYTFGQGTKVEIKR" endpoint_result=6.45e-12
binder="hz84C4-2.4 (antibody, human IgG4 S228P, kappa, V domains shown, Humanized, human IgG4 / kappa) VH: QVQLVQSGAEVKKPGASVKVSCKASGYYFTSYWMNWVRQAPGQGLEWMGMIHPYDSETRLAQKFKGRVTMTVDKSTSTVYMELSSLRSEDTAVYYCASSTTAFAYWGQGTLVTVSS VL: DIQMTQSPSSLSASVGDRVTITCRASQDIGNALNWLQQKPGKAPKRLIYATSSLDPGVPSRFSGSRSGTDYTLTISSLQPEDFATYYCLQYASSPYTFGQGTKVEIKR" endpoint_result=7.52e-12
binder="hz84C4-2.1 (antibody, human IgG4 S228P, kappa, V domains shown, Humanized, human IgG4 / kappa) VH: QVQLVQSGAEVKKPGASVKVSCKASGYFFTSYWMNWVRQAPGQGLEWMGMIHPYDSETRYAQKFQGRVTMTVDKSTSTVYMELSSLRSEDTAVYYCASSTTAFAYWGQGTLVTVSS VL: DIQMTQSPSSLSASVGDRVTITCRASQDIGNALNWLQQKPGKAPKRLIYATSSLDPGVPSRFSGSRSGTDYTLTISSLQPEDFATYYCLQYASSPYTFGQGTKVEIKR" endpoint_result=1.09e-11

-- ask May I ask what IC50 (M); hIL36α; IL-8 production has been recorded for hz84C4-1.1 (antibody, human IgG4 S228P, kappa, V domains shown, Humanized, human IgG4 / kappa) VH: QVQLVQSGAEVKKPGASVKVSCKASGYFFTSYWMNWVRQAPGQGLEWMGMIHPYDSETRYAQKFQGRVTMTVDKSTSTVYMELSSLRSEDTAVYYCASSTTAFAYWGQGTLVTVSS VL: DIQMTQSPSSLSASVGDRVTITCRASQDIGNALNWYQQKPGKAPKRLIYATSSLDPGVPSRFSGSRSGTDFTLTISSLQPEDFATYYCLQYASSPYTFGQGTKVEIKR ?
-- reply 6.38e-12
